Measured viability, T/C accompanies every entry in the list below.
System: 242566-281-R-J2-PDC complex spheroid viability;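 further: spheroids exposed to compounds for 7 days before readout; 100% = DMSO vehicle control wells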
run-description: Anticancer human tumor 242566-281-R-J2-PDC patient-derived pancreatic carcinoma cell line growth inhibition [CLK]
stated-conditions: second compound 1 µM; first compound 0.316 µM; stronger effect = lower value

{"compound": "CC1COCCN1c1cc(C2(S(C)(=N)=O)CC2)nc(-c2ccnc3[nH]ccc23)n1 (stereo not given) + CNC(=O)c1ccc(Nc2nc(OC3CCCC3)c3c(-c4ccc5nc(C)oc5c4)c[nH]c3n2)c(OC)c1", "experimental-value": "55.1%"}
{"compound": "CC(CO)NC(=O)c1cc(-c2ccc(Cl)cc2)nn(-c2cnn(C)c2)c1=O (stereo not given) + CNC(=O)c1ccc(Nc2nc(OC3CCCC3)c3c(-c4ccc5nc(C)oc5c4)c[nH]c3n2)c(OC)c1", "experimental-value": "75.6%"}

Requested read-out: viability, T/C. Entry: CCc1c2c(nc3ccc(O)cc13)-c1cc3c(c(=O)n1C2)COC(=O)[C@]3(O)CC + CN1CCN(c2cc(C(=O)Nc3cc4cc(-c5cnn(C)c5)ccc4cn3)ccn2)CC1
1.39%

Requested read-out: viability, T/C. Entry: Nc1ccn(C2OC(CO)C(O)C2(F)F)c(=O)n1 (stereo not given) + CN1CCN(c2cc(C(=O)Nc3cc4cc(-c5cnn(C)c5)ccc4cn3)ccn2)CC1
3.98%

Requested read-out: viability, T/C. Entry: C=C(F)C(=O)N1CCN(c2nc(OCC3CCCN3C)nc3c2CCN(c2cccc4cccc(Cl)c24)C3)CC1CC#N (stereo not given) + CNC(=O)c1ccc(Nc2nc(OC3CCCC3)c3c(-c4ccc5nc(C)oc5c4)c[nH]c3n2)c(OC)c1
65.5%
